Listed here: compounds with reported IC50 for cholinesterase (Rattus norvegicus).
The number alone won't do; follow it with the unit.

Record excerpt, results attached:
{"SMILES STRUCTURE": "O=C(CCN1CCN(Cc2ccccc2)CC1)c1ccc2c(c1)CCN(Cc1cccc(Cl)c1)CC2", "IC50": "0.147 µM"}
{"SMILES STRUCTURE": "COc1cccc(CN2CCc3ccc(C(=O)CCN4CCN(Cc5ccccc5)CC4)cc3CC2)c1", "IC50": "0.133 µM"}
{"SMILES STRUCTURE": "COc1ccc(CCN2CCc3ccc(C(=O)CCN4CCN(Cc5ccccc5)CC4)cc3CC2)cc1OC", "IC50": "0.0168 µM"}

Dear colleague, could you please provide IC50 for the compounds listed below?
1. Cc1ccc(CN2CCc3ccc(C(=O)CCN4CCN(Cc5ccccc5)CC4)cc3CC2)cc1
2. O=C(CCN1CCN(Cc2ccccc2)CC1)c1ccc2c(c1)CCN(Cc1ccc(Cl)cc1)CC2

-- reply
["0.0661 µM", "0.167 µM"]

These entries and their values trace back to patent EP0560235B1.
